- Test system: SK-MEL-28 melanoma
- Protocol Description: NCI tumour cell line growth inhibition, 48 h
Assay Metric: TGI

The examples below pair each entry with its known result.
compound=Nc1nc(=S)[nH]c(C(=O)Nc2ccc(Cl)c(Cl)c2)c1-c1ccc(Cl)cc1 recorded_measurement="> 100 µM"
compound=COc1ccc(-c2c(CN3CCOCC3)sc3nc4ccccc4n23)cc1 recorded_measurement="98.6 µM"
compound=CCN(CC)CCNC(=O)c1nn(C)c(=S)[nH]c1=S recorded_measurement="> 100 µM"
compound=O=C(Nc1cc[c]([Sb](=[O])([OH])[OH])cc1)c1ccccc1 recorded_measurement="> 100 µM"

Asked: Record lookup: for SK-MEL-28 melanoma, what TGI belongs to "CCC(=O)NC(Nc1ccc(O)cc1)(C(F)(F)F)C(F)(F)F" ?
Given back: > 100 µM

Asked: Similarly, "O=C(O)c1ccccc1C(=O)Nn1cnnc1" ?
Given back: > 100 µM

Asked: Similarly, "c1ccc(Nc2nnc(Cn3ccc4ccccc43)s2)cc1" ?
Given back: > 100 µM

Asked: Similarly, "O=C(O)c1ccc(Nc2nc3ccccc3nc2-c2cccs2)cc1" ?
Given back: > 100 µM
